Values were extracted from patent US9896421B2.

property measured: melting point

[[record]]
query_smiles = "O=C1NC(=S)NC(=O)C1=Cc1ccccc1O"
endpoint_result = "250.6 to 251.4 °C"

[[record]]
query_smiles = "COc1ccc(/C=C2\\CC(=O)NC2=O)cc1"
endpoint_result = "243.4 to 245.7 °C"

[[record]]
query_smiles = "[H]/N=C1/NC(=O)C(=Cc2ccc(OC)cc2OC)N1C"
endpoint_result = "244.6 to 245.6 °C"

[[record]]
query_smiles = "O=C1C/C(=C\\c2ccc(O)cc2)C(=O)N1"
endpoint_result = "> 300 °C"

[[record]]
query_smiles = "O=C1NC(=O)/C(=C/c2ccc(O)c(O)c2)N1"
endpoint_result = "> 300 °C"

[[record]]
query_smiles = "COc1cc(/C=C2\\NC(=S)NC2=O)cc(OC)c1OC"
endpoint_result = "264 to 266.6 °C"

